Exercise: for every item that follows, state its recorded IC50.
target-under-test: PIKfyve (Homo sapiens (Human), UniProt Q9Y2I7)
Sequence (Q9Y2I7 whole entry): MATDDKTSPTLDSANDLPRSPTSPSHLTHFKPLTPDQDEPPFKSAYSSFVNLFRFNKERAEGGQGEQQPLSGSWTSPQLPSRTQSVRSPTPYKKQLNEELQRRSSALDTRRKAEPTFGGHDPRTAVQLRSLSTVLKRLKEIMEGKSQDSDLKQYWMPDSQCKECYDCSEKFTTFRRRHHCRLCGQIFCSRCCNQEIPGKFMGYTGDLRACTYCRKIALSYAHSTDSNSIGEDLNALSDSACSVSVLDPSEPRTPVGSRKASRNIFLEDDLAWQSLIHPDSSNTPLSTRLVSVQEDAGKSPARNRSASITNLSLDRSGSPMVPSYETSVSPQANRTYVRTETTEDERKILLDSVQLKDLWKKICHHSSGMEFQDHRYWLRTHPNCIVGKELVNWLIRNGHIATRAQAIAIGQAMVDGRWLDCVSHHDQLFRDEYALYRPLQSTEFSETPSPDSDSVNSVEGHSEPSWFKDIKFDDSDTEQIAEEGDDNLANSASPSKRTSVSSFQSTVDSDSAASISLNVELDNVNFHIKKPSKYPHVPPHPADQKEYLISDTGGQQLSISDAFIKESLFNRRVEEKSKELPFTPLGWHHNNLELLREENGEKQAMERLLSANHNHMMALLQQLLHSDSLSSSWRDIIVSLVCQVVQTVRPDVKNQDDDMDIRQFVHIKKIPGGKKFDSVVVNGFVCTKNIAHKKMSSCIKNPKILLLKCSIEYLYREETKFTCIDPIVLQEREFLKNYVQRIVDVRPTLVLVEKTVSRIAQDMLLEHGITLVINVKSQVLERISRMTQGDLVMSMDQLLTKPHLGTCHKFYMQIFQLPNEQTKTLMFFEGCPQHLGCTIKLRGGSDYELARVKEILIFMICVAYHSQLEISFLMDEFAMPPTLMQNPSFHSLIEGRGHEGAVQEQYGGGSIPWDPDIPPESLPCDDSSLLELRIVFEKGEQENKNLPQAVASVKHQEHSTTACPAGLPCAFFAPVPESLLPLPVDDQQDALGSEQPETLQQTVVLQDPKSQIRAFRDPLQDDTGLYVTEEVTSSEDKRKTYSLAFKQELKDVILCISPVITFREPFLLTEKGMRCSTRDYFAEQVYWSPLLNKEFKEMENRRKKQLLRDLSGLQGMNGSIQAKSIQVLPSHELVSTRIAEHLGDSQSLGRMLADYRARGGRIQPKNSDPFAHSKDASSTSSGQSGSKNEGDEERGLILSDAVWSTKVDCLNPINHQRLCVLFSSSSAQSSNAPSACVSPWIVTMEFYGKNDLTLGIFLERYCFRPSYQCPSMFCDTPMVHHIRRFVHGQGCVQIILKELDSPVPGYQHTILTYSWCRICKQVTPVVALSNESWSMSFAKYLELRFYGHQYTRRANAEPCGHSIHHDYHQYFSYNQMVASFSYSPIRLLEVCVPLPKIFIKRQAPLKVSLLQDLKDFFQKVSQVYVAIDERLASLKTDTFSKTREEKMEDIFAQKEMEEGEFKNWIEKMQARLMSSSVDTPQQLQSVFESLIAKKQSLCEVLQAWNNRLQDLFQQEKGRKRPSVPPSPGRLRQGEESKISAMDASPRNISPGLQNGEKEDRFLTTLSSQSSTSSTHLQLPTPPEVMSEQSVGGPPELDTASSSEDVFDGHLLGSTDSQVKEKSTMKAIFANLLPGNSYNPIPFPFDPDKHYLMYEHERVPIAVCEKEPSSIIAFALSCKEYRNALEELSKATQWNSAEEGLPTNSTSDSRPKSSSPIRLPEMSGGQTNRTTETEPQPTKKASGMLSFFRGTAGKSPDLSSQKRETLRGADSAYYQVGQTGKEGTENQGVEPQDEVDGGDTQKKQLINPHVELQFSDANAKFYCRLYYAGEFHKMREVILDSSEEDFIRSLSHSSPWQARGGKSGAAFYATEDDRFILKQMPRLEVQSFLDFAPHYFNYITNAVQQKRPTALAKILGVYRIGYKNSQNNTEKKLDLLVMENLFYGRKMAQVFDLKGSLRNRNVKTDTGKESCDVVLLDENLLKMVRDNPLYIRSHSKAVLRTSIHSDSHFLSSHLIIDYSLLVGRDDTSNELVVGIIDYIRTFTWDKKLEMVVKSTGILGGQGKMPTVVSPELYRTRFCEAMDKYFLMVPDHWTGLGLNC
assay-info: PIKfyve EEA1 Assay (endosomal vesicle enlargement, high content imaging in U2OS cells)
Format: cell-based
experimental-setup: 3 hours of treatment, activity relative to maximal APY0201 activity

Reported IC50 for COc1c(Nc2ccncc2)nc(N2CCOCC2)nc1-c1cccc(-c2ncccn2)c1 [Compound 16] : what is it?
0.01 to 0.1 µM

Now give it for COc1c(Nc2cccnc2)nc(N2CCOCC2)nc1-c1cccc(C(=O)N(C)C)c1 [Compound 24] too.
1 to 10 µM

And COc1c(Nc2ccncc2)nc(-c2ccncc2)nc1-c1cccc(-c2ccn(C)n2)c1 [Compound 53] ?
0.01 to 0.1 µM

Now the same for Clc1c(Nc2ccncc2)nc(N2CCOCC2)nc1-c1cccc(-n2cccn2)c1 [Compound 50]
0.1 to 1 µM

Similarly, Cn1c(=O)c2c(Nc3ccncc3)nc(N3CCOCC3)nc2c2cc(-n3cccn3)ccc21 [Compound 65] ?
1 to 10 µM

Also Cn1ccc(-c2cccc(-c3nc(N4CCOCC4)nc(Nc4cccnc4)c3[S+](C)[O-])c2)n1 (centres unmarked) [Compound 59] , if possible.
1 to 10 µM

// query: COc1c(Nc2cccnc2)nc(N2CCOCC2)nc1-c1ccnc(-c2ccn(C)n2)c1 [Compound 25]
0.1 to 1 µM

Then what about the molecule COc1c(Nc2cccnc2)nc(N2CCOCC2)nc1-c1cccc(C#N)c1 [Compound 23] ?
1 to 10 µM

Entry COc1c(Nc2cccnc2)nc(N2CCOCC2)nc1-c1cccc(N2CCC(O)C2)c1 (centres unmarked) [Compound 26] please
1 to 10 µM

Same question for COc1c(Nc2ccc(C)cc2)nc(N2CCOCC2)nc1-c1cc(-c2ccn(C)n2)cnn1 [Compound 17] please.
0.01 to 0.1 µM

Try the molecule COc1c(Nc2ccncc2)nc(N2CCOCC2)nc1-c1cccc(-c2nn(C)cc2C)c1 [Compound 41]
0.1 to 1 µM

// repeat for Cn1ccc(-c2cccc(-c3nc(N4CCOCC4)nc(Nc4ccncc4)c3-c3ncco3)c2)n1 [Compound 74] and report
0.1 to 1 µM

And what about the molecule CN(C)C(=O)c1c(Nc2ccncc2)nc(N2CCOCC2)nc1-c1cccc(-c2ccn(C)n2)c1 [Compound 66] ?
0.1 to 1 µM

Field entry: COc1c(NCc2cccnn2)nc(N2CCOCC2)nc1-c1cccc(-c2ccn(C)n2)c1 [Compound 31]
1 to 10 µM

Param item: Cn1ccc(-c2ccc3[nH]c(=O)c4c(Nc5ccncc5)nc(N5CCOCC5)nc4c3c2)n1 [Compound 72]
0.01 to 0.1 µM

Please answer likewise for COc1c(-c2cccc(-c3ccn(C)n3)c2)nc(N2CCOCC2)nc1C(O)c1ccncc1 (centres unmarked) [Compound 32]
1 to 10 µM

# repeat for COc1c(-c2cccc(-c3ccn(C)n3)c2)nc(N2CCOCC2)nc1-c1ccc2ncccc2c1 [Compound 58]
0.1 to 1 µM

Cited source for all entries: patent US20250197375A1
